From: the supplement of paper PMC12067926

Give relative growth for every item shown.
System: Prolinoborus 1 (Prolinoborus fasciculus)
assay: relative growth (AUC of 72 h growth curve relative to DMSO control, dAUC) (ratio); higher = more growth (less inhibition), active = hit call of the paper
setup-conditions: 20 µM

Notebook: "Cc1ccc(/N=C/N(C)/C=N/c2ccc(C)cc2C)c(C)c1" , relative growth read as 0.978 (inactive)

Notebook: "CC(C)N(C)S(=O)(=O)NC(=O)c1cc(-n2c(=O)cc(C(F)(F)F)n(C)c2=O)c(F)cc1Cl" , relative growth read as 0.979 (inactive)

Notebook: CCCC1COC(Cn2cncn2)(c2ccc(Cl)cc2Cl)O1 (stereo not drawn) , relative growth read as 0.954 (inactive)

Notebook: "CCCN(CCOc1c(Cl)cc(Cl)cc1Cl)C(=O)n1ccnc1" , relative growth read as 0.93 (inactive)

Notebook: "CC[C@H]1CCC[C@H](O[C@H]2CC[C@H](N(C)C)[C@@H](C)O2)[C@@H](C)C(=O)C2=C[C@@H]3[C@@H](C=C(C)[C@@H]4C[C@@H](O[C@@H]5O[C@@H](C)[C@H](OC)[C@@H](OC)[C@H]5OC)C[C@@H]34)[C@@H]2CC(=O)O1.CC[C@H]1CCC[C@H](O[C@H]2CC[C@H](N(C)C)[C@@H](C)O2)[C@@H](C)C(=O)C2=C[C@H]3[C@@H]4C[C@H](O[C@@H]5O[C@@H](C)[C@H](OC)[C@@H](OC)[C@H]5OC)C[C@H]4C=C[C@H]3C2CC(=O)O1" , relative growth read as 0.832 (inactive)

Notebook: "CNC(=O)c1cc(Cl)cc(C)c1NC(=O)c1cc(Br)nn1-c1ncccc1Cl" , relative growth read as 0.997 (inactive)

Notebook: "CC1(C)[C@H](C(=O)O[C@H](C#N)c2cccc(Oc3ccccc3)c2)[C@@H]1C=C(Br)Br" , relative growth read as 1.01 (inactive)

Notebook: "C[N+](C)(C)CCCl" , relative growth read as 0.959 (inactive)

###

Tested on: Pseudomonas 1 (Pseudomonas baetica)
assay: relative growth (AUC of 72 h growth curve relative to DMSO control, dAUC) (ratio); higher = more growth (less inhibition), active = hit call of the paper
setup-conditions: 20 µM
Give relative growth for every item shown.
Format: numeric value only, no unit, no commentary.

Notebook: CCC(C)c1ccccc1OC(=O)NC (stereo unspecified) , relative growth read as 0.95

Notebook: O=C(NC(=O)c1c(F)cccc1F)Nc1ccc(OC(F)(F)C(F)OC(F)(F)F)c(Cl)c1 (stereo unspecified) , relative growth read as 1.02

Notebook: "CSc1nnc(C(C)(C)C)c(=O)n1N" , relative growth read as 0.717

Notebook: CC(COc1ccc(Oc2ccccc2)cc1)Oc1ccccn1 (stereo unspecified) , relative growth read as 1.02

Notebook: CCc1cnc(C2=NC(C)(C(C)C)C(=O)N2)c(C(=O)O)c1 (stereo unspecified) , relative growth read as 0.912

Notebook: "CC1(C)[C@H](C(=O)O[C@H](C#N)c2cccc(Oc3ccccc3)c2)[C@@H]1C=C(Br)Br" , relative growth read as 1.04

###

System: Prolinoborus 1 (Prolinoborus fasciculus)
assay: relative growth (AUC of 72 h growth curve relative to DMSO control, dAUC) (ratio); higher = more growth (less inhibition), active = hit call of the paper
setup-conditions: 20 µM
readout-label: relative growth
Format: numeric value only, no unit, no commentary.

Entry "C#CCN1C(=O)COc2cc(F)c(N3C(=O)C4=C(CCCC4)C3=O)cc21" under Prolinoborus 1 (Prolinoborus fasciculus) had relative growth of 0.972

Entry CC1(C)C(C=C(Cl)Cl)C1C(=O)OC(C#N)c1cccc(Oc2ccccc2)c1 (stereo unspecified) under Prolinoborus 1 (Prolinoborus fasciculus) had relative growth of 0.983

Entry "CCCCN(CCCC)SN(C)C(=O)Oc1cccc2c1OC(C)(C)C2" under Prolinoborus 1 (Prolinoborus fasciculus) had relative growth of 0.949

Entry N#CC(CCc1ccc(Cl)cc1)(Cn1cncn1)c1ccccc1 (stereo unspecified) under Prolinoborus 1 (Prolinoborus fasciculus) had relative growth of 0.902

Entry CC1(C)C(C(=O)OC(C#N)c2cccc(Oc3ccccc3)c2)C1(C)C (stereo unspecified) under Prolinoborus 1 (Prolinoborus fasciculus) had relative growth of 0.893

Entry "COc1cccc(C(=O)NN(C(=O)c2cc(C)cc(C)c2)C(C)(C)C)c1C" under Prolinoborus 1 (Prolinoborus fasciculus) had relative growth of 0.981

Entry "CC(C)N(C(=O)COc1nnc(C(F)(F)F)s1)c1ccc(F)cc1" under Prolinoborus 1 (Prolinoborus fasciculus) had relative growth of 0.963

Entry "CC(C)NC(=O)N1CC(=O)N(c2cc(Cl)cc(Cl)c2)C1=O" under Prolinoborus 1 (Prolinoborus fasciculus) had relative growth of 0.949

Entry COP(N)(=O)SC (stereo unspecified) under Prolinoborus 1 (Prolinoborus fasciculus) had relative growth of 0.972

Entry "CCOCN(C(=O)CCl)c1c(C)cccc1CC" under Prolinoborus 1 (Prolinoborus fasciculus) had relative growth of 1.2

Entry "CS(=O)(=O)NC(=O)c1cc(Oc2ccc(C(F)(F)F)cc2Cl)ccc1[N+](=O)[O-]" under Prolinoborus 1 (Prolinoborus fasciculus) had relative growth of 1.01
